molecular target: human ACVR2A (human, UniProt P27037 20-135, limits assumed); assay: ELISA; further: test concentration or dose not given here
Sequence (P27037 20-135 limits assumed): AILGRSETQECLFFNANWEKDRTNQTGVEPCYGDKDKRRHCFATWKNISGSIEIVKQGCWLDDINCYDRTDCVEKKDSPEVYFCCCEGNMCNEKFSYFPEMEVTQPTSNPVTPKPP
TEST_READOUT: optical density (OD)
Give the number; OD is assumed, so skip it.

// solved cases for optical density follow
1. 376_H09 (antibody, V domains shown, VH/VL only) VH: EVQLLESGGGLVQPGGSLRLSCAASGFTFSDYSMNWVRQAPGKGLEWVANINYNGGYTGYADSVKGRFTISRDNSKNTLYLQMNSLRAEDTAVYYCARSANWHDTALDYWGQGTLVTVSS VL: DIQMTQSPSSLSASVGDRVTITCRASQSIITYLNWYQQKPGKAPKLVIYYVSNLPSGVPSRFSGSGSGTDFTLTISSLQPEDFATYYCQQSYDSPLTFGGGTKVEIK : 3.32
2. 365_B03 (antibody, V domains shown, VH/VL only) VH: EVQLLESGGGLVQPGGSLRLSCAASGFTFSSYSMNWVRQAPGKGLEWVAGINYNGGYTGYADSVKGRFTISRDNSKNTLYLQMNSLRAEDTAVYYCARSATWHDTHLDYWGQGTLVTVSS VL: DIQMTQSPSSLSASVGDRVTITCRASQSIVSYLNWYQQKPGKAPKLLIYAATSRASGVPSRFSGSGSGTDFTLTISSLQPEDFATYYCQQSYENPLTFGGGTKVEIK : 2.65

Alright, here's another binder for you.
Returns the measured optical density for the input binder. Input: 376_D11 (antibody, V domains shown, VH/VL only) VH: EVQLLESGGGLVQPGGSLRLSCAASGFTFSSYGMNWVRQAPGKGLEWVANINYNGGYTGYADSVKGRFTISRDNSKNTLYLQMNSLRAEDTAVYYCARSANWHDTALDYWGQGTLVTVSS VL: DIQMTQSPSSLSASVGDRVTITCRASQSILSYLNWYQQKPGKAPKLVIYAATSRASGVPSRFSGSGSGTDFTLTISSLQPEDFATYYCQQSYNNPLTFGGGTKVEIK
3.7
